Assay: Pharmacokinetics in SD rats
Format: in vivo
Conditions: SD, rat, plasma, iv, 10 mg/kg
METRIC NAME: AUC(0-t) (ng·h/mL)
Answer format: numeric, ng·h/mL implied, no suffix.

Qu. Returns the measured AUC(0-t) for the input compound. Input: CC(=O)O[C@H]1C(=O)[C@@]2(C)[C@H]([C@H](OC(=O)c3ccccc3)[C@]3(O)C[C@H](OC(=O)[C@H](O)[C@@H](NC(=O)c4ccccc4)c4ccccc4)C(C)=C1C3(C)C)[C@]1(OC(C)=O)CO[C@@H]1C[C@@H]2O
Ans. 2380

* * *

Test: Pharmacokinetics in SD rats
Assay type: in vivo
Conditions: SD, rat, plasma, iv, 10 mg/kg
METRIC NAME: Vd
Remember to put the unit after the number in your answer.

Qu. Returns the measured Vd for the input molecule. Input: CC(=O)O[C@H]1C(=O)[C@@]2(C)[C@H]([C@H](OC(=O)c3ccccc3)[C@]3(O)C[C@H](OC(=O)[C@H](O)[C@@H](NC(=O)c4ccccc4)c4ccccc4)C(C)=C1C3(C)C)[C@]1(OC(C)=O)CO[C@@H]1C[C@@H]2O
Ans. 54.5 L/kg

* * *

Assay: Pharmacokinetics in SD rats
Format: in vivo
Conditions: SD, rat, plasma, iv, 10 mg/kg
METRIC NAME: MRT last (h)
Answer format: numeric, h implied, no suffix.

Qu. Returns the measured MRT last for the input compound. Input: CC(=O)O[C@H]1C(=O)[C@@]2(C)[C@H]([C@H](OC(=O)c3ccccc3)[C@]3(O)C[C@H](OC(=O)[C@H](O)[C@@H](NC(=O)c4ccccc4)c4ccccc4)C(C)=C1C3(C)C)[C@]1(OC(C)=O)CO[C@@H]1C[C@@H]2O [PTX, Paclitaxel]
Ans. 4.94

Data provenance: paper PMC9673813
